- ASSAY_TARGET: UniProt:P56817
- MEASUREMENT_DESCRIPTION: In vitro BACE cell-based assay (Aβ40 in conditioned medium, sandwich ELISA)
Kindly supply the reported IC50 values for the records listed here.
Express it in µM; write the number only.

## Input Param readout = IC50; param system = UniProt:P56817; param query = NC1=N[C@@](c2cc(NC(=O)c3cnc(OCc4cocn4)cn3)ccc2Cl)(C(F)F)[C@H]2C[C@H]2O1 ; response: value
## Output 0.013

## Input // next record NC1=N[C@@](c2cc(NC(=O)c3cnc(OCc4ncco4)cn3)ccc2F)(C(F)F)[C@H]2C[C@H]2O1
## Output 0.0103

## Input Follow-up entry: NC1=N[C@](CF)(c2cc(NC(=O)c3ccc(Br)cn3)cnc2F)[C@H]2C[C@H]2O1
## Output 0.0188

## Input Can you check N#Cc1cnc(C(=O)Nc2ccc(F)c([C@@]3(CF)N=C(N)O[C@@H]4C[C@@H]43)c2)c(Cl)c1 next?
## Output 0.0059

## Input Same question for COc1cc(Cl)cnc1C(=O)Nc1ccc(F)c([C@@]2(C(F)F)N=C(N)O[C@@H]3C[C@@H]32)c1 please.
## Output 0.0765

====

- ASSAY_TARGET: UniProtKB P07339
- MEASUREMENT_DESCRIPTION: In vitro enzymatic Cathepsin D (Cat D) FRET assay
- Assay type: biochemical
- DETAILS: read-out: CatD IC50
QUANTITY_MEASURED: IC50 (µM)
// return numeric value only (unit: µM, not printed)

## Input Lab request: please report IC50 under test system UniProtKB P07339 for N#Cc1cnc2c(Nc3ccc(F)c([C@@]4(CF)N=C(N)O[C@@H]5C[C@@H]54)c3)ncnc2c1
## Output 147

## Input Thanks! And NC1=N[C@](CF)(c2cc(NC(=O)c3ncc(Cl)cc3Cl)ccc2F)[C@H]2C[C@H]2O1 ?
## Output 875

## Input Follow-up item: Cc1cc(OC(F)F)cnc1C(=O)Nc1ccc(Cl)c([C@]2(C(F)F)N=C(N)O[C@H]3C[C@H]32)c1
## Output 1130

## Input Also need NC1=N[C@@](c2cc(NC(=O)c3nn(C(F)F)cc3Cl)ccc2Cl)(C(F)F)[C@H]2C[C@H]2O1 , thanks.
## Output 510

## Input CC#CCOc1cnc(C(=O)Nc2cc(F)c(F)c(C3(CF)N=C(N)O[C@H]4C[C@H]43)c2)cn1 (stereo in doubt) ?
## Output 526

## Input What do you get for N#Cc1ccc(C(=O)Nc2ccc(F)c([C@@]3(C(F)F)N=C(N)O[C@@H]4C[C@@H]43)n2)nc1 [Example 331] ?
## Output 1510

## Input Now the compound NC1=N[C@@](CF)(c2cc(NC(=O)c3ccc(Br)cn3)ccc2Cl)[C@@H]2C[C@@H]2O1
## Output 1130

====

- ASSAY_TARGET: BACE (Homo sapiens (Human), UniProt P56817)
- Sequence (P56817 46-501, species assumed): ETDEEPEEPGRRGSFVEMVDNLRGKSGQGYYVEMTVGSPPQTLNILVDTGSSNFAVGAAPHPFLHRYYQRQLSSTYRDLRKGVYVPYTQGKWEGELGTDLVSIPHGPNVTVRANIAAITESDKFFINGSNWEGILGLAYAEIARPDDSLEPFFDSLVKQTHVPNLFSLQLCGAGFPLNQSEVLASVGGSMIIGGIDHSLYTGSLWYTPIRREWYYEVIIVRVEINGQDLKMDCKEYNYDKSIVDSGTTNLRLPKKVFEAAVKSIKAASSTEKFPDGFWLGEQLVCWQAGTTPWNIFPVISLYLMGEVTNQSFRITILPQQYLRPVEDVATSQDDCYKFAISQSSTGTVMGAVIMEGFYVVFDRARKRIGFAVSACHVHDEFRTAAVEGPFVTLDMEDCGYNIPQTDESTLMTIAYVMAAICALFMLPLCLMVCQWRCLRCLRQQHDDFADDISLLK
- MEASUREMENT_DESCRIPTION: In vitro BACE cell-based assay (Aβ40 in conditioned medium, sandwich ELISA)
Provide the recorded IC50 for the entries that follow.
# value in µM; strip the unit string

## Input Query (molecule): NC1=N[C@](CF)(c2cc(NC(=O)c3cc4ccccc4cn3)ccc2F)[C@H]2C[C@H]2O1 ; field requested: IC50
## Output 0.159

## Input Try this molecule next: Cc1csc(C(=O)Nc2ccc(F)c([C@@]3(C(F)F)N=C(N)O[C@@H]4C[C@@H]43)c2)c1
## Output 0.156

## Input Would you kindly repeat that for COc1cnc(C(=O)Nc2ccc(F)c([C@@]3(C(F)F)N=C(N)O[C@@H]4C[C@@H]43)c2)c(C)c1 ?
## Output 0.0809

## Input Please give the result for CC#CCOc1cnc(C(=O)Nc2ccc(Cl)c([C@@]3(CF)N=C(N)O[C@@H]4C[C@@H]43)c2)cn1 too.
## Output 0.0006

====

Please provide measured IC50 for the entries that follow.
- ASSAY_TARGET: Cathepsin D (Cat D) (Homo sapiens (Human), UniProt P07339)
- Sequence (P07339 65-412, species assumed): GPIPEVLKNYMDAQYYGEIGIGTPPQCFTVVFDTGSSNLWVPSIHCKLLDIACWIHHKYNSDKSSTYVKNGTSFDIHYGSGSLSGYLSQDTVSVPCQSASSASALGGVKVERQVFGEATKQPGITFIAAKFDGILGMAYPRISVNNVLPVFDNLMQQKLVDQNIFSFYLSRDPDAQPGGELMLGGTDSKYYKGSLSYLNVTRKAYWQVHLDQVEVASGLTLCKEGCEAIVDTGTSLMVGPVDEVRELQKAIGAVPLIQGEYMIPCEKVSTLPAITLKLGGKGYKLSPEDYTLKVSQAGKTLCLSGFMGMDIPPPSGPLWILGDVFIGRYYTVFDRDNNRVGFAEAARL
- MEASUREMENT_DESCRIPTION: In vitro enzymatic Cathepsin D (Cat D) FRET assay
- Format: biochemical
- DETAILS: read-out: CatD IC50

## Input Which IC50 is listed for CC#Cc1cncc(-c2ccc(F)c([C@@]3(C(F)F)N=C(N)O[C@@H]4C[C@@H]43)c2)c1 ?
## Output 72.9 µM

## Input Follow-up entry: COc1cnc(C(=O)Nc2ccc(F)c([C@@]3(C(F)F)N=C(N)O[C@@H]4C[C@@H]43)c2)c(OC)n1
## Output > 400 µM

## Input Then what about the compound Cc1cc(C(F)F)cnc1C(=O)Nc1ccc(F)c([C@@]2(C(F)F)N=C(N)O[C@@H]3C[C@@H]32)c1 ?
## Output 768 µM

## Input Do the same for NC1=N[C@@](c2cc(NC[C@H]3C[C@H]3c3ccccc3)ccc2F)(C(F)F)[C@H]2C[C@H]2O1 please
## Output 85.5 µM

====

- ASSAY_TARGET: Beta Secretase enzyme (BACE) (Homo sapiens (Human), UniProt P56817)
- Sequence (P56817 46-501): as the sequence (P56817 46-501, species assumed) above
- MEASUREMENT_DESCRIPTION: In vitro enzymatic BACE FRET assay
- Assay type: biochemical
- DETAILS: read-out: BACE1 Enzyme assay IC50
Counter-ions that a name gives are not always drawn.
QUANTITY_MEASURED: IC50

## Input Record request: IC50 value, item Cc1cc(C#N)cnc1C(=O)Nc1cc(F)c(C)c([C@]2(C(F)F)N=C(N)O[C@H]3C[C@H]32)c1 [Example 311]
## Output 0.0466 µM

## Input Then Cc1nc(C(=O)Nc2ccc(F)c([C@@]3(C(F)F)N=C(N)O[C@@H]4C[C@@H]43)c2)co1 [Example 166] ?
## Output 0.0613 µM

## Input Subsequent entry: COc1cnc(C(=O)Nc2ccc(F)c([C@@]3(C(F)F)N=C(N)O[C@@H]4C[C@@H]43)c2)c(Cl)c1 [Example 70]
## Output 0.0568 µM

## Input Same lookup for NC1=N[C@@](c2cc(NC(=O)c3ccccn3)ccc2F)(C(F)F)[C@H]2C[C@H]2O1 [Example 292] , please.
## Output 0.3 µM

## Input Quick one: C[C@H](F)c1nc(C(=O)Nc2ccc(F)c([C@@]3(C(F)F)N=C(N)O[C@@H]4C[C@@H]43)c2)co1 (mixture of isomers) [Example 175, trifluoroacetate]
## Output 2.88 µM

## Input What would you report for N#Cc1cnc(C(=O)Nc2ccc(Cl)c([C@@]3(CF)N=C(N)O[C@@H]4C[C@@H]43)c2)c(Cl)c1 [Example 127] ?
## Output 0.0395 µM

## Input Moving on to N#Cc1cnc2c(c1)CC[C@H]2Nc1ccc(F)c([C@@]2(C(F)F)N=C(N)O[C@@H]3C[C@@H]32)c1 [Example 401]
## Output 0.108 µM

## Input Then this molecule: NC1=N[C@@](CF)(c2cc(NC(=O)c3ccc(Cl)cn3)ccc2F)[C@@H]2C[C@@H]2O1 [Example 118]
## Output 1.56 µM

## Input Cc1cc(OC(F)F)cnc1C(=O)Nc1ccc(F)c([C@@]2(C(F)F)N=C(N)O[C@@H]3C[C@@H]32)c1 [Example 237] , same question.
## Output 0.0377 µM

## Input How about this molecule: NC1=N[C@](c2cc(NC(=O)c3ccc(Cl)cn3)ccc2F)(C(F)(F)F)[C@@H]2C[C@@H]2O1 (racemic) [Example 218]
## Output 0.861 µM

## Input Can you handle C[C@@]1(c2nc(NC(=O)c3ncc(Cl)cc3Cl)ccc2F)N=C(N)O[C@H]2C[C@H]21 [Example 329] next?
## Output > 40 µM

## Input Would you kindly repeat that for Cc1cc(C#N)cnc1C(=O)Nc1cc(F)c(F)c([C@@]2(CF)N=C(N)O[C@@H]3C[C@@H]32)c1 [Example 49] ?
## Output 0.0308 µM

## Input Further, for CC#Cc1cnn(-c2ccc(F)c([C@@]3(C(F)F)N=C(N)O[C@@H]4C[C@@H]43)c2)c1 [Example 434] ?
## Output 1.21 µM

## Input And then COc1cnc(C(=O)Nc2ccc(Cl)c([C@@]3(C(F)F)N=C(N)O[C@@H]4C[C@@H]43)c2)cn1 [Example 226] , what is it?
## Output 0.0895 µM

====

- ASSAY_TARGET: BACE (Homo sapiens (Human), UniProt P56817)
- MEASUREMENT_DESCRIPTION: In vitro BACE cell-based assay (Aβ40 in conditioned medium, sandwich ELISA)
Classify by IC50. Ranges: I: < 0.04 µM; II: ≥ 0.04 µM and < 0.6 µM; III: ≥ 0.6 µM

## Input The entry to classify is CC#Cc1cnn(-c2ccc(F)c([C@@]3(C(F)F)N=C(N)O[C@@H]4C[C@@H]43)c2)c1 ; which class holds it?
## Output II

## Input // next record CS(=O)(=O)c1ccc(C(=O)Nc2ccc(F)c([C@@]3(C(F)F)N=C(N)O[C@@H]4C[C@@H]43)c2)nc1
## Output III

## Input Quick one: NC1=N[C@@](c2cc(NC(=O)c3csc(Cl)c3)ccc2F)(C(F)F)[C@H]2C[C@H]2O1
## Output III

## Input Also, NC1=N[C@@](c2cc(NC(=O)c3cnc(OCc4nccs4)cn3)ccc2F)(C(F)F)[C@H]2C[C@H]2O1 please.
## Output II

## Input What about NC1=N[C@@](c2cc(NC(=O)c3cnc(OCC4CCCCC4)cn3)ccc2F)(C(F)F)[C@H]2C[C@H]2O1 ?
## Output III

## Input And what about the molecule NC1=N[C@@](c2cc(NC(=O)c3cnc(OCC(F)(F)F)cn3)ccc2F)(C(F)F)[C@H]2C[C@H]2O1 ?
## Output II

## Input And for NC1=N[C@@](c2cc(NC(=O)c3cnc(OCc4cscn4)cn3)ccc2F)(C(F)F)[C@H]2C[C@H]2O1 ?
## Output II

## Input Same lookup for COc1cnc(C(=O)Nc2cc(F)c(F)c([C@@]3(CF)N=C(N)O[C@@H]4C[C@@H]43)c2)cn1 , please.
## Output I

## Input Repeat with CC(F)(F)Oc1ccc(C(=O)Nc2ccc(F)c([C@@]3(C(F)F)N=C(N)O[C@@H]4C[C@@H]43)c2)nc1
## Output II

## Input Field entry: NC1=N[C@@](c2cc(NC(=O)c3ccc(OCc4ncco4)cn3)ccc2F)(C(F)F)[C@H]2C[C@H]2O1
## Output II

## Input Query COc1cc(Cl)cnc1C(=O)Nc1ccc(Cl)c([C@@]2(CF)N=C(N)O[C@@H]3C[C@@H]32)c1 next
## Output I

## Input How about N#Cc1cnc(C(=O)Nc2ccc(F)c([C@@]3(C(F)F)N=C(N)O[C@@H]4C[C@@H]43)c2)c(C(F)F)c1 ?
## Output II

## Input Field entry: C[C@@H](Nc1ccc(F)c([C@@]2(C(F)F)N=C(N)O[C@@H]3C[C@@H]32)c1)c1ccc(Cl)cn1 (mixture of isomers)
## Output III

## Input Thanks! And Cc1cc(OC(F)F)cnc1C(=O)Nc1ccc(F)c([C@@]2(C(F)F)N=C(N)O[C@@H]3C[C@@H]32)c1 ?
## Output I

## Input And then Cc1cc(Cl)cnc1C(=O)Nc1ccc(F)c([C@@]2(C(F)F)N=C(N)O[C@@H]3C[C@@H]32)c1 , what is it?
## Output I

## Input Repeat for the following molecule: C[C@H](C(=O)Nc1ccc(F)c([C@@]2(C(F)F)N=C(N)O[C@@H]3C[C@@H]32)c1)c1ccc(Cl)cc1 (mixture of isomers)
## Output III

## Input Quick one: CC#CCOc1ccc(C(=O)Nc2ccc(F)c([C@@]3(CF)N=C(N)O[C@@H]4C[C@@H]43)c2)nc1
## Output I

## Input Entry to check: COc1cnc(C(=O)Nc2ccc(Cl)c([C@]3(CF)N=C(N)O[C@H]4C[C@H]43)c2)cn1
## Output III

## Input What do we get for Cn1cc(C(=O)Nc2ccc(F)c([C@@]3(C(F)F)N=C(N)O[C@@H]4C[C@@H]43)c2)ccc1=O ?
## Output III

## Input Next record, please: NC1=N[C@@](c2cc(NCC3CC3)ccc2F)(C(F)F)[C@H]2C[C@H]2O1
## Output II

## Input // repeat for C#CCOc1cnc(C(=O)Nc2ccc(F)c([C@@]3(CF)N=C(N)O[C@@H]4C[C@@H]43)c2)cn1 and report
## Output I

## Input Next: CC#Cc1ccc(C(=O)Nc2ccc(F)c([C@@]3(C(F)F)N=C(N)O[C@@H]4C[C@@H]43)c2)nc1
## Output II

## Input Quick one: NC1=N[C@](CF)(c2cc(Nc3ncnc4cc(Cl)cnc34)ccc2F)[C@H]2C[C@H]2O1
## Output II

## Input Same question for Cc1cc(OC(F)F)cnc1C(=O)Nc1ccc(Cl)c([C@]2(C(F)F)N=C(N)O[C@H]3C[C@H]32)c1 please.
## Output III

## Input // query: COc1cnc(C(=O)Nc2cc(Cl)c(F)c([C@@]3(CF)N=C(N)O[C@@H]4C[C@@H]43)c2)c(C)n1
## Output I

## Input Entry to check: Cc1cc(C#N)cnc1C(=O)Nc1cc(F)c(F)c([C@@]2(CF)N=C(N)O[C@@H]3C[C@@H]32)c1 (stereo in doubt) [Example 50]
## Output III

## Input Entry Cc1cc(C#N)cnc1C(=O)Nc1cc(F)c(C)c([C@@]2(C(F)F)N=C(N)O[C@@H]3C[C@@H]32)c1 [Example 310] please
## Output III

## Input Moving on to CN(C)c1cc(C#N)cnc1C(=O)Nc1ccc(F)c([C@@]2(C(F)F)N=C(N)O[C@@H]3C[C@@H]32)c1
## Output II
